- Tested on: Bacillus subtilis ATCC 6051
- Protocol description: microbe, parasite or virus in culture
- Type: cell-based
- Test settings: ATCC 6051, 16 h
Positions of bridges follow the written chain, without caps; N, C: chain ends. Non-standard residues stand in square brackets, D forms with d. Residues, ends and D or L forms follow the SMILES beside them. Chains are numbered I, II in the order given. d(aIle) = CC[C@H](C)[C@@H](N)C(=O)O; dNMeF = CN[C@H](Cc1ccccc1)C(=O)O
Value type: MIC B. subtilis

Compound	Observed value
CC[C@H](C)[C@H](NC(=O)[C@@H](Cc1ccccc1)NC)C(=O)N[C@@H](CO)C(=O)N[C@H](CCC(N)=O)C(=O)N[C@@H](C(=O)N[C@H](C(=O)OC[C@H](N)C(=O)N[C@H]1C(=O)N[C@@H](C)C(=O)N[C@@H](CCCCN)C(=O)N[C@@H]([C@@H](C)CC)C(=O)O[C@H]1C)[C@@H](C)CC)[C@@H](C)CC [compound 2, [Ile6-O-Ser7],Lys10-teixobactin] (I: H-[dNMeF]IS[dQ][d(aIle)]I / II: H-S[dT]AKI; ester I:C-II:1, II:2-II:C)	≤ 0.0625 µg/mL

* * *

Below: a set of entries, each annotated with reported MIC Staphylococcus epidermidis ATCC 14990.
- System: Staphylococcus epidermidis ATCC 14990
- Protocol description: microbe, parasite or virus in culture
- Format: cell-based
- Test settings: ATCC 14990, 16 h
Positions of bridges follow the written chain, without caps; N, C: chain ends. Non-standard residues stand in square brackets, D forms with d. Residues, ends and D or L forms follow the SMILES beside them. Chains are numbered I, II in the order given. dNMeF = CN[C@H](Cc1ccccc1)C(=O)O; Nphe = O=C(O)CNCc1ccccc1
Value type: MIC Staphylococcus epidermidis ATCC 14990 (µg/mL)

Molecule	Lt gt eq	Observed value
CC[C@H](C)[C@H](NC(=O)[C@H](CO)NC(=O)[C@@H](NC(=O)[C@@H](Cc1ccccc1)NC)[C@@H](C)CC)C(=O)N[C@@H](CCC(N)=O)C(=O)N[C@H](C(=O)OC[C@H](N)C(=O)N[C@H]1C(=O)N[C@@H](C)C(=O)N[C@@H](CCCCN)C(=O)N[C@@H]([C@@H](C)CC)C(=O)O[C@H]1C)[C@@H](C)CC [compound 3] (I: H-[dNMeF]ISIQI / II: H-S[dT]AKI; ester I:C-II:1, II:2-II:C)	=	4
CC[C@H](C)[C@H](NC(=O)CNCc1ccccc1)C(=O)N[C@@H](CO)C(=O)N[C@H](C(=O)N[C@@H](CCC(N)=O)C(=O)N[C@H](C(=O)OC[C@H](N)C(=O)N[C@H]1C(=O)N[C@@H](C)C(=O)N[C@@H](CCCCN)C(=O)N[C@@H]([C@@H](C)CC)C(=O)O[C@H]1C)[C@@H](C)CC)[C@@H](C)CC [compound 5] (I: H-[Nphe]ISIQI / II: H-S[dT]AKI; ester I:C-II:1, II:2-II:C)	>	32
CC[C@H](C)[C@H](NC(=O)[C@H](CO)NC(=O)[C@@H](NC(=O)[C@@H](Cc1ccccc1)NC)[C@@H](C)CC)C(=O)N[C@@H](CCC(N)=O)C(=O)N[C@H](C(=O)OC[C@H](N)C(=O)N[C@H]1C(=O)N[C@@H](C)C(=O)N[C@@H](CCCNC(=N)N)C(=O)N[C@@H]([C@@H](C)CC)C(=O)O[C@H]1C)[C@@H](C)CC [compound 8] (I: H-[dNMeF]ISIQI / II: H-S[dT]ARI; ester I:C-II:1, II:2-II:C)	=	2
CC[C@H](C)[C@H](NC(=O)[C@@H](Cc1ccccc1)NC)C(=O)N[C@@H](CO)C(=O)N[C@H](CCC(N)=O)C(=O)N[C@@H](C(=O)N[C@H](C(=O)N[C@@H](CO)C(=O)N[C@H]1C(=O)N[C@@H](C)C(=O)N[C@@H](CCCNC(=N)N)C(=O)N[C@@H]([C@@H](C)CC)C(=O)O[C@H]1C)[C@@H](C)CC)[C@@H](C)CC [compound 6, Arg10-teixobactin]	=	0.5

* * *

- Tested on: Bacillus subtilis ATCC 6051
- Protocol description: microbe, parasite or virus in culture
- Assay type: cell-based
- Test settings: ATCC 6051, 16 h
Positions of bridges follow the written chain, without caps; N, C: chain ends. Non-standard residues stand in square brackets, D forms with d. Residues, ends and D or L forms follow the SMILES beside them. Chains are numbered I, II in the order given. d(aIle) = CC[C@H](C)[C@@H](N)C(=O)O; dNMeF = CN[C@H](Cc1ccccc1)C(=O)O
Below: a set of entries, each annotated with reported MIC Bacillus subtilis ATCC 6051.

Compound	Test target	Lt gt eq	MIC Bacillus subtilis ATCC 6051, µg/mL
CC[C@H](C)[C@H](NC(=O)[C@H](CO)NC(=O)[C@@H](NC(=O)[C@@H](Cc1ccccc1)NC)[C@@H](C)CC)C(=O)N[C@@H](CCC(N)=O)C(=O)N[C@H](C(=O)OC[C@H](N)C(=O)N[C@H]1C(=O)N[C@@H](C)C(=O)N[C@@H](CCCCN)C(=O)N[C@@H]([C@@H](C)CC)C(=O)O[C@H]1C)[C@@H](C)CC [compound 3] (I: H-[dNMeF]ISIQI / II: H-S[dT]AKI; ester I:C-II:1, II:2-II:C)	Bacillus subtilis ATCC 6051	=	4
CC[C@H](C)[C@H](NC(=O)[C@H](CO)NC(=O)[C@@H](NC(=O)[C@@H](Cc1ccccc1)NC)[C@@H](C)CC)C(=O)N[C@@H](CCC(N)=O)C(=O)N[C@H](C(=O)OC[C@H](N)C(=O)N[C@H]1C(=O)N[C@@H](C)C(=O)N[C@@H](CCCNC(=N)N)C(=O)N[C@@H]([C@@H](C)CC)C(=O)O[C@H]1C)[C@@H](C)CC [compound 8] (I: H-[dNMeF]ISIQI / II: H-S[dT]ARI; ester I:C-II:1, II:2-II:C)	Bacillus subtilis ATCC 6051	=	2
CC[C@H](C)[C@H](NC(=O)[C@@H](Cc1ccccc1)NC)C(=O)N[C@@H](CO)C(=O)N[C@H](CCC(N)=O)C(=O)N[C@@H](C(=O)N[C@H](C(=O)N[C@@H](CO)C(=O)N[C@H]1C(=O)N[C@@H](C)C(=O)N[C@@H](CCCNC(=N)N)C(=O)N[C@@H]([C@@H](C)CC)C(=O)O[C@H]1C)[C@@H](C)CC)[C@@H](C)CC [compound 6, Arg10-teixobactin]	Bacillus subtilis ATCC 6051	≤	0.0313
CC[C@H](C)[C@H](NC(=O)[C@@H](Cc1ccccc1)NC)C(=O)N[C@@H](CO)C(=O)N[C@H](CCC(N)=O)C(=O)N[C@@H](C(=O)N[C@H](C(=O)OC[C@H](N)C(=O)N[C@H]1C(=O)N[C@@H](C)C(=O)N[C@@H](CCCCN)C(=O)N[C@@H]([C@@H](C)CC)C(=O)O[C@H]1C)[C@@H](C)CC)[C@@H](C)CC [compound 2, [Ile6-O-Ser7],Lys10-teixobactin] (I: H-[dNMeF]IS[dQ][d(aIle)]I / II: H-S[dT]AKI; ester I:C-II:1, II:2-II:C)	Bacillus subtilis ATCC 6051	≤	0.0313
CC[C@H](C)[C@H](NC(=O)[C@@H](Cc1ccccc1)NC)C(=O)N[C@@H](CO)C(=O)N[C@H](CCC(N)=O)C(=O)N[C@@H](C(=O)N[C@H](C(=O)OC[C@H](N)C(=O)N[C@H]1C(=O)N[C@@H](C)C(=O)N[C@@H](CCCNC(=N)N)C(=O)N[C@@H]([C@@H](C)CC)C(=O)O[C@H]1C)[C@@H](C)CC)[C@@H](C)CC [compound 7, [Ile6-O-Ser7],Arg10-teixobactin] (I: H-[dNMeF]IS[dQ][d(aIle)]I / II: H-S[dT]ARI; ester I:C-II:1, II:2-II:C)	Bacillus subtilis ATCC 6051	=	0.0625
